target: human orexin-2 receptor (Homo sapiens (Human)); experiment: In vitro assay: intracellular calcium measurements (FLIPR), antagonistic activity; settings: CHO cells expressing human orexin-2 receptor, orexin-A agonist, geometric mean, read-out: IC50 Ox2
Sequence (O43614 whole entry): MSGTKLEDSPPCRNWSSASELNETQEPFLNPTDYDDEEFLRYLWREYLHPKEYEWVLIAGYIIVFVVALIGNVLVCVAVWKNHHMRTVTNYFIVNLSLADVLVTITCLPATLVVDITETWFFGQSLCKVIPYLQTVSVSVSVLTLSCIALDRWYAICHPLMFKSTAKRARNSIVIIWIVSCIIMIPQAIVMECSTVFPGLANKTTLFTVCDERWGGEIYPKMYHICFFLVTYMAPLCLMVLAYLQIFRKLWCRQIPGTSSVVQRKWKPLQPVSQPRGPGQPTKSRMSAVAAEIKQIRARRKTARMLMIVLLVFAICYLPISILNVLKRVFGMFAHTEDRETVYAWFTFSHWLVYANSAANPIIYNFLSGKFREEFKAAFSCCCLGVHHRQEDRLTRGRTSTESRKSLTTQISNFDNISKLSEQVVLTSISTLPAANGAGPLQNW
pIC50: −log10 of the molar value.
Hi, to clarify the labels: 1 covers pIC50 from 7 upward, 0 covers anything below 7.

1. COc1cc2nc([C@@H]3[C@@H](C)CCN3C(=O)c3nc(C)sc3-c3ccc(F)cc3)[nH]c2cc1OC [Ex. 4.54]	0
2. Cc1nc(C(=O)N2CCC[C@@]2(C)c2nc3cc(OC(F)(F)F)ccc3[nH]2)c(-c2ccc(F)cc2)s1 [Ex. 5.248]	0
3. CO[C@@H]1C[C@@H](c2nc3ccc(Cl)c(C)c3[nH]2)N(C(=O)c2ccccc2-c2ccc(C)c(C)c2)C1 [Ex. 3.38]	1
4. Cc1ccc(-c2ccccc2C(=O)N2CC[C@H](C)[C@H]2c2nc3cc(Cl)c(C)cc3[nH]2)cc1 [Ex. 4.77]	0
5. CSc1ccc2nc([C@@H]3CCCN3C(=O)c3c(F)cccc3-n3nccn3)[nH]c2c1 [Ex. 1.148]	1
6. COc1ccc2nc([C@@H]3C[C@@H](OC)CN3C(=O)c3cc(C)c(C)cc3-n3nccn3)[nH]c2c1 [Ex. 3.22]	1
7. Cc1c(Cl)ccc2[nH]c([C@@H]3[C@@H](C)CCN3C(=O)c3cc(F)ccc3-c3ccccc3)nc12 [Ex. 4.164]	0
8. Cc1ccc(-c2ncccn2)c(C(=O)N2CC[C@H](C)[C@H]2c2nc3c(C)c(Cl)ccc3[nH]2)c1F [Ex. 4.176]	0
9. COc1cc(C(=O)N2CCC[C@@]2(C)c2nc3cc(C(F)(F)F)c(Cl)cc3[nH]2)c(-n2nccn2)cc1OC [Ex. 5.135]	1

Does the reported pIC50 for Cc1nc(C(=O)N2CC[C@H](C)[C@H]2c2nc3c(C)c(Cl)ccc3[nH]2)c(-c2cc(F)cc(F)c2)s1 [Ex. 4.67] fall at or above the 7 mark?
0

Taken from patent US9732075B2.
